Data provenance is patent US20090012103A1.

measurementTarget: wild-type human cardiac sodium channel, hNav1.5 (Homo sapiens)
assayProcedure: Late INa screening assay (late sodium current, PatchXpress whole cell patch clamp)
Assay type: cell-based
appliedConditions: compound at 10 μM; read-out: Late INa % blk
Label rule, in plain words: inhibition at 10 µM of 30% and up is rule met, under 30% is rule not met.

Ask: Determine whether this compound has inhibition at 10 µM no lower than 30%: COC(=O)c1ccc(-c2n[nH]c3c2C(c2cccc4ccccc24)C2=C(COC2=O)N3)cc1 (stereo not drawn)
Reply: rule not met

Ask: Determine whether this compound has inhibition at 10 µM no lower than 30%: CC1=C(C(=O)N2CCc3ccccc3C2)C(c2cccc3ccccc23)C2=C(CCCC2=O)N1 (stereo not drawn)
Reply: rule not met

Ask: Determine whether this compound has inhibition at 10 µM no lower than 30%: CC1=C(C(=O)OCc2ccccc2)C(c2ccccc2-c2ccc(N3CCOCC3)cc2)n2nnnc2N1 (stereo not drawn)
Reply: rule not met

Ask: Determine whether this compound has inhibition at 10 µM no lower than 30%: CCOC(=O)C1=C(C)NC2=C(C(=O)CCC2)C1c1ccc(OC)c2ccc(OC)cc12 (stereo not drawn)
Reply: rule met

Ask: Determine whether this compound has inhibition at 10 µM no lower than 30%: CCOC(=O)C1=C(C)Nc2[nH]ncc2C1c1ccccc1Br (stereo not drawn)
Reply: rule met

Ask: Determine whether this compound has inhibition at 10 µM no lower than 30%: CC1=C(C(=O)OCc2ccccc2)C(c2ccccc2N2CCN(C)CC2)n2nnnc2N1 (stereo not drawn)
Reply: rule met

Ask: Determine whether this compound has inhibition at 10 µM no lower than 30%: CCCC1=C(C(=O)OCC)C(c2ccsc2)C2=C(CC(c3ccccc3)CC2=O)N1 (stereo not drawn)
Reply: rule met

Ask: Determine whether this compound has inhibition at 10 µM no lower than 30%: CCOC(=O)C1=C(C)Nc2nnnn2C1c1sccc1-c1ccc(C(=O)O)cc1 (stereo not drawn)
Reply: rule not met

Ask: Determine whether this compound has inhibition at 10 µM no lower than 30%: CC1=C(C(=O)OCc2ccccc2)C(c2ccc(B(O)O)cc2)n2nnnc2N1 (stereo not drawn)
Reply: rule not met

Ask: Determine whether this compound has inhibition at 10 µM no lower than 30%: CC1=C(C(=O)OC(C)(C)Cc2ccccc2)C(c2ccccc2Br)c2cn[nH]c2N1 (stereo not drawn)
Reply: rule met

Ask: Determine whether this compound has inhibition at 10 µM no lower than 30%: CC1=C(C(=O)OCc2ccccc2)C(c2ccccc2-c2cccc(N)c2)n2nnnc2N1 (stereo not drawn)
Reply: rule met

Ask: Determine whether this compound has inhibition at 10 µM no lower than 30%: COc1ccc(COC(=O)C2=C(C)Nc3nnnn3C2c2cccc3ccccc23)cc1OC (stereo not drawn)
Reply: rule met

Ask: Determine whether this compound has inhibition at 10 µM no lower than 30%: COC(=O)C1=C(C)Nc2ccnn2C1c1nc(C)cs1 (stereo not drawn)
Reply: rule not met

Ask: Determine whether this compound has inhibition at 10 µM no lower than 30%: CC1=C(c2nnc(-c3ccccc3)o2)C(c2cccc3ccccc23)n2nnnc2N1 (stereo not drawn)
Reply: rule not met

Ask: Determine whether this compound has inhibition at 10 µM no lower than 30%: COc1cc(Cl)ccc1COC(=O)C1=C(C)Nc2nnnn2C1c1cccc2ccccc12 (stereo not drawn)
Reply: rule met

Ask: Determine whether this compound has inhibition at 10 µM no lower than 30%: CC1=C(C(=O)OCc2ccccc2)C(c2ccsc2)n2nnnc2N1 (stereo not drawn)
Reply: rule met

====

measurementTarget: wild-type human cardiac sodium channel, hNav1.5 (Homo sapiens, UniProt Q14524)
Sequence (Q14524 whole entry): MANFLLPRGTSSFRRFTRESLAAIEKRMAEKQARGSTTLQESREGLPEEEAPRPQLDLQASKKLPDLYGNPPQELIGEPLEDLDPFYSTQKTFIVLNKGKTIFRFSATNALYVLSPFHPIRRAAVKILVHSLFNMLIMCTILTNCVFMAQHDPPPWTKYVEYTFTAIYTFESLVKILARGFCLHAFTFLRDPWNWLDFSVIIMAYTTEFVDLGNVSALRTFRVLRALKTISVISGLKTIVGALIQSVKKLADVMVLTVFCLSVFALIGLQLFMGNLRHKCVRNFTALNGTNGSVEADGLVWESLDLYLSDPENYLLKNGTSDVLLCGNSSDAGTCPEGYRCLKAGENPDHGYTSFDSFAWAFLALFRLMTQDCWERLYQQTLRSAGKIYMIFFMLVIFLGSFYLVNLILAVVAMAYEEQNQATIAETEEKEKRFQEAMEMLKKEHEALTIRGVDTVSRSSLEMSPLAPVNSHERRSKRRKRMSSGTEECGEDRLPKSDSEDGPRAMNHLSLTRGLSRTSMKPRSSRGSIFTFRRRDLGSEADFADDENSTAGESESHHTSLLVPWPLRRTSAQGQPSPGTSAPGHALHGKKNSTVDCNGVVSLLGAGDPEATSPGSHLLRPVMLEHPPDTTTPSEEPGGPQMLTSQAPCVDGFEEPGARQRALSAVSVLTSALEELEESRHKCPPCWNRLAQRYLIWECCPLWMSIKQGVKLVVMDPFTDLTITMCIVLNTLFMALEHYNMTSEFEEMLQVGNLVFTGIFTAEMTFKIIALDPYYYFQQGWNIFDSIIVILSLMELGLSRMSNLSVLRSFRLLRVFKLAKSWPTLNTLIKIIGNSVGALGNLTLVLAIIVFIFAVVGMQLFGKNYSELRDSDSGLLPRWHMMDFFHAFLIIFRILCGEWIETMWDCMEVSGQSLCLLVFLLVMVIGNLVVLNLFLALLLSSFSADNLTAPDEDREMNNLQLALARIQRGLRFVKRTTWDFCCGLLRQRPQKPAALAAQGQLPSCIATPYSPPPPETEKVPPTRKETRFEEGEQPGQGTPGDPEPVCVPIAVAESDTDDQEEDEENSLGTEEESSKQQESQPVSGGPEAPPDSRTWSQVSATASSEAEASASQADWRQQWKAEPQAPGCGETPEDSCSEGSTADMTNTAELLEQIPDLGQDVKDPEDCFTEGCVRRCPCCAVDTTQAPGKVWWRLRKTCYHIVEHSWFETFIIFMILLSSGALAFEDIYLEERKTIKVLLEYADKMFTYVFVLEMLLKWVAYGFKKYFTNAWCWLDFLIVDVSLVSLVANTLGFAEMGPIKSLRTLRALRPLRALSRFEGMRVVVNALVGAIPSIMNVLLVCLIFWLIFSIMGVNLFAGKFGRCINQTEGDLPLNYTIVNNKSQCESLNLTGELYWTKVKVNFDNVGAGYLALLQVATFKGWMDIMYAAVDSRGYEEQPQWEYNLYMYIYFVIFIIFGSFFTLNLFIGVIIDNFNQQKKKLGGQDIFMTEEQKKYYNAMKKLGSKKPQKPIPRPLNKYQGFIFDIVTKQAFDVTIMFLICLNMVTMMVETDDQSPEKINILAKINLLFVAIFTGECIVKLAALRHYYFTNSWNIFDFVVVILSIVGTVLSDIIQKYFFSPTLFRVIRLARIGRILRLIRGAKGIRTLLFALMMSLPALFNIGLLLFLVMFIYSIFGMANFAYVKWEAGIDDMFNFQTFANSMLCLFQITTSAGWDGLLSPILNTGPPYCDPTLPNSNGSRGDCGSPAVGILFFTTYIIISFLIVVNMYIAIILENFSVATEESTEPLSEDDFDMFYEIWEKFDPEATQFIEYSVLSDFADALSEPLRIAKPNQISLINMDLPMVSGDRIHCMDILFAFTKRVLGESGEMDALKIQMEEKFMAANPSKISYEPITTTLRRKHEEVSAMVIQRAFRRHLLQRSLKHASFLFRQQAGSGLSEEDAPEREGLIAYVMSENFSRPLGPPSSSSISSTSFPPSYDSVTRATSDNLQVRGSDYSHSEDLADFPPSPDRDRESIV
assayProcedure: Peak INa screening assay (tonic block TB and use-dependent block UDB of peak sodium current)
Assay type: cell-based
appliedConditions: use-dependent block; compound at 10 μM; read-out: UDB Peak INa % blk
For each entry below, report its inhibition at 10 µM value.
Your answer is read as %, so omit the unit and give the number.

Ask: What does the data say about its inhibition at 10 µM? Entry: CC1=C(C(=O)OCC2CC2)C(c2c(Br)sc3ccccc23)n2nnnc2N1 (stereo not drawn) [PT-426]
Reply: 50.7

Ask: What does the data say about its inhibition at 10 µM? Entry: CC1=C(C(=O)OCc2ccccc2)C(c2ccc3ccccc3c2)C2=C(CCCC2=O)N1 (stereo not drawn) [PT-320]
Reply: 26.5

Ask: What does the data say about its inhibition at 10 µM? Entry: CC1=C(C(=O)OC(c2ccc(F)cc2)c2ccc(F)cc2)C(c2cccs2)n2nnnc2N1 (stereo not drawn) [PT-423]
Reply: 20.4

Ask: What does the data say about its inhibition at 10 µM? Entry: CC1=C(C(=O)OC(C)C)C(c2c(Br)sc3ccccc23)n2nnnc2N1 (stereo not drawn) [PT-506]
Reply: 23

Ask: What does the data say about its inhibition at 10 µM? Entry: CC1=C(C(=O)OCc2ccccc2)C(c2ccc3ccccc3c2)c2c(C)n[nH]c2N1 (stereo not drawn) [PT-325]
Reply: 24.3

Ask: What does the data say about its inhibition at 10 µM? Entry: COc1ccc(-c2sc3ccccc3c2C2C(C(=O)OCc3ccccc3)=C(C)Nc3nnnn32)cc1 (stereo not drawn) [PT-379]
Reply: 9.8

Ask: What does the data say about its inhibition at 10 µM? Entry: CC1=C(C(=O)OCc2ccccc2)C(c2cccc3ccccc23)n2nnnc2N1 (stereo not drawn) [PT-027]
Reply: 6.8

Ask: What does the data say about its inhibition at 10 µM? Entry: CCOC(=O)[C@@H]1CCCN(c2cc(OC)ccc2C2C(C(=O)OCc3ccccc3)=C(C)Nc3[nH]ncc32)C1 (stereo partly drawn) [PT-327]
Reply: 9.4

Ask: What does the data say about its inhibition at 10 µM? Entry: CCOC(=O)C1=C(C)Nc2nnnn2C1c1cccc(Oc2cccc(C(=O)OCC)c2)c1 (stereo not drawn) [PT-494]
Reply: 2

Ask: What does the data say about its inhibition at 10 µM? Entry: CC1=C(C(=O)OCc2ccccc2)C(c2ccc(N(C)C)c3ccccc23)c2cn[nH]c2N1 (stereo not drawn) [PT-332]
Reply: 2.7

Ask: What does the data say about its inhibition at 10 µM? Entry: CCOC(=O)C1=C(C)Nc2[nH]ncc2C1c1ccc(OC)cc1OCc1ccccc1 (stereo not drawn) [PT-445]
Reply: 31.6

Ask: What does the data say about its inhibition at 10 µM? Entry: CCOC(=O)C1=C(C)Nc2nnnn2C1c1c(Br)sc2ccccc12 (stereo not drawn) [PT-489]
Reply: 29.2

Ask: What does the data say about its inhibition at 10 µM? Entry: CC1=C(C(=O)O[C@@H](C)c2ccccc2)C(c2sc3ccccc3c2C)n2nccc2N1 (stereo partly drawn) [PT-244]
Reply: 44

Ask: What does the data say about its inhibition at 10 µM? Entry: CCOC(=O)C1=C(C)Nc2nnnn2C1c1sccc1-c1cccc(F)c1 (stereo not drawn) [PT-496]
Reply: 9.1

Ask: What does the data say about its inhibition at 10 µM? Entry: CCOC(=O)C1=C(C)Nc2nnnn2C1c1cccc(OCc2ccc(C(=O)OCC)cc2)c1 (stereo not drawn) [PT-497]
Reply: 15.4

Ask: What does the data say about its inhibition at 10 µM? Entry: COc1ccccc1COC(=O)C1=C(C)Nc2nnnn2C1c1c(C)cccc1C (stereo not drawn) [PT-262]
Reply: 6.9

Ask: What does the data say about its inhibition at 10 µM? Entry: CCOC(=O)C1=C(C)NC(C)=C(C(=O)OCC)C1c1ccccc1Br [PT-430]
Reply: 55.6

Ask: What does the data say about its inhibition at 10 µM? Entry: CC1=C(c2nnc(Cc3ccccc3)o2)C(c2cccc3ccccc23)C2=C(CCCC2=O)N1 (stereo not drawn) [PT-276]
Reply: 13

====

measurementTarget: UniProt Q14524
assayProcedure: Late INa screening assay (late sodium current, PatchXpress whole cell patch clamp)
Type: cell-based
appliedConditions: compound at 10 μM; read-out: Late INa % blk
resultType: inhibition at 10 µM (%)
Your answer is read as %, so omit the unit and give the number.

Ask: What does the data say about its inhibition at 10 µM? Entry: COC(=O)C1=C(C)Nc2nnnn2C1c1sc2ccccc2c1Br (stereo not drawn)
Reply: 78.4

Ask: What does the data say about its inhibition at 10 µM? Entry: CCOC(=O)C1=C(C)Nc2ccnn2C1c1ccc(N(C)C)c2ccccc12 (stereo not drawn)
Reply: 27

Ask: What does the data say about its inhibition at 10 µM? Entry: CC1=C(C(=O)OCc2ccccc2)C(c2sccc2-c2ccc(F)cc2)n2nnnc2N1 (stereo not drawn)
Reply: 69.1

Ask: What does the data say about its inhibition at 10 µM? Entry: CC1=C(C(=O)OCc2cccc(C#N)c2)C(c2cccc3ccccc23)n2nnnc2N1 (stereo not drawn)
Reply: 63.9

Ask: What does the data say about its inhibition at 10 µM? Entry: CC1=C(C(=O)N2CCN(c3ccc(C(=O)O)cc3)CC2)C(c2cccc3ccccc23)C2=C(CCCC2=O)N1 (stereo not drawn)
Reply: 4.9

Ask: What does the data say about its inhibition at 10 µM? Entry: CC1=C(C(=O)OC(C)C)C(c2ccc3ccccc3c2)n2nnnc2N1 (stereo not drawn)
Reply: 47.7

Ask: What does the data say about its inhibition at 10 µM? Entry: CC1=C(C(=O)OCc2ccccc2)C(c2ccccc2)c2cn[nH]c2N1 (stereo not drawn)
Reply: 20.8

Ask: What does the data say about its inhibition at 10 µM? Entry: CC1=C(C(=O)OCc2ccccc2)C(c2cnc(N3CCOCC3)s2)n2nnnc2N1 (stereo not drawn)
Reply: 23

Ask: What does the data say about its inhibition at 10 µM? Entry: `CCOC(=O)C1=C(C)NC(C)=C(C(=O)OCC)C1c1ccc([N+](=O)[O-])cc1OC`
Reply: 30.3

Ask: What does the data say about its inhibition at 10 µM? Entry: CCOC(=O)c1ccc(COc2ccccc2C2C(C(=O)OC)=C(C)Nc3nnnn32)cc1 (stereo not drawn)
Reply: 20.2

Ask: What does the data say about its inhibition at 10 µM? Entry: CCOC(=O)C1=C(C)Nc2nnnn2C1c1ccccc1OCc1ccc(C(=O)OCC)cc1 (stereo not drawn)
Reply: 3.2

Ask: What does the data say about its inhibition at 10 µM? Entry: COc1ccc(-c2ccc(COC(=O)C3=C(C)Nc4nnnn4C3c3cccc4ccccc34)cc2)cc1 (stereo not drawn)
Reply: 20.3

Ask: What does the data say about its inhibition at 10 µM? Entry: CCOC(=O)C1=C(C)NC2=C(C(=O)CCC2)C1c1ccccc1-c1ccc(C(N)=O)cc1 (stereo not drawn)
Reply: 9

Ask: What does the data say about its inhibition at 10 µM? Entry: COc1cc(Cl)ccc1COC(=O)C1=C(C)Nc2nnnn2C1c1ccccc1Br (stereo not drawn)
Reply: 53.4

Ask: What does the data say about its inhibition at 10 µM? Entry: CC1=C(C(=O)OCc2ccccc2)C(c2ccc(C(F)(F)F)cc2C(F)(F)F)n2nnnc2N1 (stereo not drawn)
Reply: 29.4

Ask: What does the data say about its inhibition at 10 µM? Entry: COc1ccc2ccccc2c1C1C(C(=O)O[C@@H](C)c2ccccc2)=C(C)Nc2nnnn21 (stereo partly drawn)
Reply: 53.6

Ask: What does the data say about its inhibition at 10 µM? Entry: COc1ccccc1COC(=O)C1=C(C)Nc2nnnn2C1c1c(C)cccc1C (stereo not drawn)
Reply: 70

Ask: What does the data say about its inhibition at 10 µM? Entry: CCOC(=O)C1=C(C)Nc2nnnn2C1c1ccccc1-n1cccn1.Cl (stereo not drawn) [PT-477, hydrochloride]
Reply: 6.2
